Hello, the source for this data is PubChem BioAssay (NCATS), in case you need it.

experiment: qHTS drug screen for cell cycle checkpoint inhibitors in PARPi-resistant BRCA-mutant ovarian cancer cell lines. (AID 1963452); conditions: PEO1/OlaR viability, CellTiter-Glo luminescence, 96 h; measured here: PEO1 parental Z-AUC; stronger effect = lower value
Outcome Measure: Z-AUC
Write the number on its own, no unit after it.

Value of measured Z-AUC for the entry "CC(=O)OCCN1C(=O)c2c(C)nc3ccc(S(=O)(=O)N4CCOCC4)cc3c2C1=O" : 1.34

Field Z-AUC (entry "OCCCNc1cc(-c2ccnc(Nc3cccc(Cl)c3)n2)ccn1" ) reads -2.3

Z-AUC recorded for this molecule, "O=C(O)c1ccc2cc(-c3ccc(O)c(C45CC6CC(CC(C6)C4)C5)c3)ccc2c1" , is -1.55

Data point: "CC(=O)SC[C@@H](C)C(=O)N1CCC[C@H]1C(=O)N[C@@H](Cc1ccccc1)C(=O)O" ; Z-AUC = -0.242

Sample "COc1ccc(F)c(F)c1C(=O)c1cnc(NC2CCN(S(C)(=O)=O)CC2)nc1N" ; Z-AUC observed: -1.69

What the record says about "COc1cc2ncn(-c3cc(OCc4ccccc4C(F)(F)F)c(C(N)=O)s3)c2cc1OC" : Z-AUC is -0.678

The molecule listed as "Nc1ccccc1NC(=O)c1ccc(CNC(=O)OCc2cccnc2)cc1" shows Z-AUC equal to -1.32

"CCN(CC)CCCCNc1ncc2cc(-c3cc(OC)cc(OC)c3)c(NC(=O)NC(C)(C)C)nc2n1" yielded Z-AUC of 1.07

// recorded Z-AUC for "CC(C)Nc1cc(C(F)(F)F)cc2nc(NC(=O)c3cccnc3)nn12" : 0.905

Notebook: "Cn1cc(-c2ccncc2)c(-c2ccc(OCc3ccc4ccccc4n3)cc2)n1" , Z-AUC read as -0.209

###

test: Quantitative High-Throughput drug screen in 47 multiple myeloma cell lines against the NCATS MIPE library collection: Karpas620_DSMZ cell viability assay (AID 1918959); details: Karpas620 myeloma viability, CellTiter-Glo ATP luminescence, 48 h; series mostly up to 45.8 µM; further: nearly all actives have a fitted effect of over 30% in size
Records with an inconclusive call do not appear. Calls of active or inactive are those of the source. Calls follow the shape of the dose curve; as a rule, active = well fitted cell-killing curve with a large enough effect; inconclusive = small, poorly fitted or top-dose-only effect, or effect the other way; inactive = no such curve, though single readings can be large or run the other way.
// allowed return values: True = active, False = inactive

Challenge: Would you mind telling me which call this test gave O=c1[nH]c(=O)n(C2CCCO2)cc1F (centres undefined) ?
Response given: False

Challenge: For this compound, state the assay outcome: "COc1ccc(-n2nc(C(N)=O)c3c2C(=O)N(c2ccc(N4CCCCC4=O)cc2)CC3)cc1"
Response given: False

Challenge: So what was the verdict on "COC(=O)C[C@](O)(CCCC(C)(C)O)C(=O)O[C@@H]1C(OC)=C[C@]23CCCN2CCc2cc4c(cc2[C@H]13)OCO4" in this test?
Response given: False

Challenge: Dear all, I need the recorded test outcome for "COc1cc2c(Oc3ccc(NC(=O)C4(C(=O)Nc5ccc(F)cc5)CC4)cc3F)ccnc2cc1OCCCN1CCOCC1" , thank you.
Response given: True

Challenge: Assay result, entry "COc1ccc(F)c(F)c1C(=O)c1cnc(NC2CCN(S(C)(=O)=O)CC2)nc1N" — outcome?
Response given: True

Challenge: What call does the record list for "C[C@@H](Oc1cc(-c2cnn(C3CCNCC3)c2)cnc1N)c1c(Cl)ccc(F)c1Cl" ?
Response given: True

Challenge: Any idea what this test logged for "CN1CCN(c2cc(C(=O)Nc3ccc4c(c3)-c3c(c(C(N)=O)nn3-c3ccc(F)cc3)CC4)c(Cl)cn2)CC1" ?
Response given: True

Challenge: What is the recorded call for this compound in the test? "O=C(c1cncc(Br)c1)N1CCC(N2CCCC2)CC1"
Response given: False

Challenge: Any idea what this test logged for "CC(C)c1cc(C(=O)N2Cc3ccc(CN4CCN(C)CC4)cc3C2)c(O)cc1O" ?
Response given: True

Challenge: For this compound, state the assay outcome: "Nc1cccc(-c2cc3c(Oc4cccc(O)c4)ncnc3[nH]2)c1"
Response given: False

Challenge: Per the assay record, what outcome was assigned to "COc1cc2ncn(-c3cc(OCc4ccccc4C(F)(F)F)c(C(N)=O)s3)c2cc1OC" ?
Response given: True

Challenge: Which outcome was assigned to O=C(O)C1(Cc2cccc(Nc3nccs3)n2)CCC(Oc2cccc(Cl)c2F)CC1 (centres undefined) in this test?
Response given: True

Challenge: Assay result, entry "CCN(CC)CCNC(=O)c1ccc2nc(-c3ccccc3)c(-c3ccc(CN4CCC(n5c(=O)[nH]c6ccccc65)CC4)cc3)nc2c1" — outcome?
Response given: True

Challenge: Hi, sorry to bother you, what did the test record for "COc1cc2c(NC3CCN(C(C)C)CC3)nc(C3CCCCC3)nc2cc1OCCCN1CCCC1" ?
Response given: True

Challenge: Each compound tested received a call. Report the one for "O=C(NC1CCNCC1)c1[nH]ncc1NC(=O)c1c(Cl)cccc1Cl" .
Response given: True

Challenge: Could you please tell me the result logged for "COc1cc(C(=O)NS(=O)(=O)c2ccccc2C)ccc1Cc1cn(C)c2ccc(NC(=O)OC3CCCC3)cc12" in this assay?
Response given: False

Challenge: Please let me know the test result on file for "NC(=O)c1c(OCc2c(F)cc(Br)cc2F)nsc1NC(=O)NCCCCN1CCCC1" .
Response given: False

Challenge: What was the test verdict on "Cc1cc(C(=O)N2CCN(c3cccc(Cl)c3)CC2)n(-c2ccccc2)n1" ?
Response given: True

Challenge: How was "CN(C)CC=CC(=O)Nc1cc2c(Nc3ccc(F)c(Cl)c3)ncnc2cc1O[C@H]1CCOC1" classified in this test?
Response given: True

Challenge: Please share the test call associated with "C=CC(=O)Nc1cc2c(Nc3ccc(F)c(Cl)c3)ncnc2cc1C#CC(C)(C)N1CCN(C)CC1" .
Response given: True

Challenge: Status in this test for "Nc1nc(Nc2ccc(S(N)(=O)=O)cc2)nn1C(=O)c1c(F)cccc1F" ?
Response given: True

Challenge: For "Cc1ccc(C(=O)Nc2ccc(CN3CCN(C)CC3)c(C(F)(F)F)c2)cc1C#Cc1cnc2cccnn12" , which call appears in the assay record?
Response given: True

Challenge: Identify the outcome logged in this assay for the compound shown: "CC(C)(C)c1cc(NC(=O)Nc2ccc(-c3cn4c(n3)sc3cc(OCCN5CCOCC5)ccc34)cc2)no1"
Response given: False

Challenge: # outcome recorded in this test, key = "C1=CCOCc2cc(ccc2OCCN2CCCC2)Nc2nccc(n2)-c2cccc(c2)OCC1"
Response given: True

Challenge: // return assay outcome for "CC(=O)c1c(C)c2cnc(Nc3ccc(N4CCNCC4)cn3)nc2n(C2CCCC2)c1=O"
Response given: True

Challenge: I'd appreciate the recorded outcome for Nc1ncnc2c1c(-c1cccc(OCc3ccccc3)c1)cn2C1CC(CN2CCCC2)C1 (centres undefined) from this test.
Response given: True

Challenge: Field: outcome | Entry: "Cc1cnc(Nc2ccc(F)cc2Cl)nc1-c1c[nH]c(C(=O)N[C@H](CO)c2cccc(Cl)c2)c1"
Response given: True

Challenge: // return assay outcome for "CC(=O)Nc1sc2c(c1-c1nc3ccccc3s1)CNC2"
Response given: False

Challenge: Check the results log: what was the call for "COc1ccc2c(OCc3nnc4ccc(-c5ccccc5)nn34)ccnc2c1" ?
Response given: False

Challenge: // return assay outcome for "C=C1C(=CC=C2CCC[C@]3(C)[C@@H]([C@H](C)C=C[C@H](C)C(C)C)CC[C@@H]23)C[C@@H](O)C[C@@H]1O"
Response given: True

Challenge: Any idea what this test logged for "O=C(Cc1ccc(-c2ccc(OCCN3CCOCC3)cc2)cn1)NCc1ccccc1" ?
Response given: True

Challenge: Hello, I am checking results. What call was entered for "Cc1cccc(C=NNc2cc(N3CCOCC3)nc(OCCc3ccccn3)n2)c1" ?
Response given: True

Challenge: // return assay outcome for "O=C(C=Cc1c(C(=O)O)[nH]c2cc(Cl)cc(Cl)c12)Nc1ccccc1"
Response given: False

Challenge: I would be grateful if you could indicate the recorded call for "CC1(C)CCC(c2ccc(Cl)cc2)=C(CN2CCN(c3ccc(C(=O)NS(=O)(=O)c4ccc(N[C@H](CCN5CCOCC5)CSc5ccccc5)c(S(=O)(=O)C(F)(F)F)c4)cc3)CC2)C1" .
Response given: True

Challenge: // return assay outcome for "CNC(=O)c1cc(Oc2ccc(NC(=O)Nc3cc(C(C)(C)C)nn3-c3ccc4ncccc4c3)c(F)c2)ccn1"
Response given: True

Challenge: Can you look up the reported call for "Cc1ccc(-c2ncn(-c3ccc(Nc4nccc(-c5cccc(N6CCOCC6)c5)n4)cc3)n2)cn1" for me?
Response given: True

Challenge: GET /call?item= "NC(=O)Nc1cc(-c2cccc(F)c2)sc1C(=O)N[C@H]1CCCNC1" returns the recorded outcome of this test.
Response given: True

Challenge: Name the outcome recorded for "COc1c(N2C[C@@H]3CCCN[C@H]3C2)c(F)cc2c(=O)c(C(=O)O)cn(C3CC3)c12" in the assay.
Response given: False

Challenge: Per the records of this test, what outcome belongs to "CN(C)Cc1c(C(=O)NCCOc2ccc(C(=O)NO)cc2)oc2ccccc12" ?
Response given: True
